System: Leishmania infantum
Assay: Anti-leishmanial activity against promastigote stage of Leishmania infantum MHOM/MA/67/ITMAP-263 assessed as inhibition of parasite growth incubated for 72 hrs by resazurin-dye based assay
Format: functional, organism-based
Conditions: MHOM/MA/67/ITMAP-263, 72 h
pIC50: −log10 of the molar value.

- compound-structure: "COc1cccc(Nc2ncnc3c(N/N=C/c4ccc(OC)c(OC)c4)ncnc23)c1"
  system-tested: "Leishmania infantum"
  pIC50: 5.84
- compound-structure: "COc1ccc(Nc2ncnc3c(N/N=C/c4ccc(O)c(O)c4)ncnc23)cc1"
  system-tested: "Leishmania infantum"
  pIC50: 6.00
- compound-structure: "COc1cccc(Nc2ncnc3c(N/N=C/c4ccc(O)c(O)c4)ncnc23)c1"
  system-tested: "Leishmania infantum"
  pIC50: 5.78
- compound-structure: "COc1ccc(Nc2ncnc3c(N/N=C/c4cc(O)c(O)c(O)c4)ncnc23)cc1"
  system-tested: "Leishmania infantum"
  pIC50: 6.70
- compound-structure: "COc1cccc(Nc2ncnc3c(N/N=C/c4cc(O)c(O)c(O)c4)ncnc23)c1"
  system-tested: "Leishmania infantum"
  pIC50: 6.35
- compound-structure: "Oc1ccc(/C=N/Nc2ncnc3c(Nc4ccc(OC(F)(F)F)cc4)ncnc23)cc1O"
  system-tested: "Leishmania infantum"
  pIC50: 4.83
